Target: Voltage-gated potassium channel subunit beta-2 (Rattus norvegicus) (UniProt P62483)
Sequence (P62483 whole entry, looked up): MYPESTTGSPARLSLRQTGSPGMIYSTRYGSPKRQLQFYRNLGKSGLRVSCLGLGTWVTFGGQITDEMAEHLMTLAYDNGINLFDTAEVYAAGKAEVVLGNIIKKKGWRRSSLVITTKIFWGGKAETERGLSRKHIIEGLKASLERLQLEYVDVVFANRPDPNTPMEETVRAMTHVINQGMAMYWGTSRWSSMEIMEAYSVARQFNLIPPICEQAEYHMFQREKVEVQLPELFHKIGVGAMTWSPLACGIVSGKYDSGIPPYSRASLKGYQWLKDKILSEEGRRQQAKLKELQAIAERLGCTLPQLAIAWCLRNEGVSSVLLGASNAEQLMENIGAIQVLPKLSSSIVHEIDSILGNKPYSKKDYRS
Assay: KvBeta enzyme negative modulators, primary screen, biochemical, NADPH fluorescence (AID 622);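 further: slope of raw intensity against log time taken from 70 to 1610 s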
Settings: recombinant KvBeta, 4-cyanobenzaldehyde reduction, at 10 µM, stronger effect = higher value
Task for the reader: assign each of the following compounds its reported fluorescence slope.
A bare number is all that is needed in reply.

Exam item: GET /values?readout=fluorescence slope&item= CCCNS(=O)(=O)c1ccc(OCC(=O)NCc2ccco2)cc1
Marked response: -0.478

Exam item: GET /values?readout=fluorescence slope&item= CC1(C)Cc2c(c(-c3ccccc3Cl)[nH]c(=O)c2C#N)CO1
Marked response: -0.384

Exam item: GET /values?readout=fluorescence slope&item= CCCN1CCC(NC(=O)Nc2ccc(OC)c(OC)c2)CC1
Marked response: -0.383

Exam item: GET /values?readout=fluorescence slope&item= CCOC(=O)c1[nH]c(C)c(C(=O)N2CCN(C(=O)c3ccco3)CC2)c1C
Marked response: -0.5

Exam item: GET /values?readout=fluorescence slope&item= Cc1cc(=O)oc(C)c1C(=O)NCCc1ccccc1
Marked response: -0.433

Exam item: GET /values?readout=fluorescence slope&item= Cc1cc(C)c(S(=O)(=O)Nc2cccnc2)c(C)c1
Marked response: -0.614

Exam item: GET /values?readout=fluorescence slope&item= C/C=C(\CS(=O)(=O)c1ccccc1)S(=O)(=O)c1ccccc1
Marked response: -0.508

Exam item: GET /values?readout=fluorescence slope&item= Cc1ccccc1Nc1cc2ccccc2c(=O)[nH]1
Marked response: -0.17

Exam item: GET /values?readout=fluorescence slope&item= COn1c(SC2CCCCC2)nc2ccccc2c1=O
Marked response: -0.48

Exam item: GET /values?readout=fluorescence slope&item= CCOC(=O)C1=C(C)NC(=O)NC1c1ccc(OCCO)c(OC)c1 (configuration not stated)
Marked response: -0.468

Exam item: GET /values?readout=fluorescence slope&item= N/C(=N\S(=O)(=O)c1ccc(Cl)s1)c1ccccc1
Marked response: -0.473

Exam item: GET /values?readout=fluorescence slope&item= COCCCNC(=O)c1c(N)n(/N=C/c2cccnc2)c2nc3ccccc3nc12
Marked response: -0.253
